System: Purified human neutrophils
Assay: Luminol enhanced chemiluminescence (neutrophil oxidative activity), fMLP stimulated
Assay type: cell-based
Details: Homo sapiens, Neutrophil; read-out: Functional
Quick list: EC50 per entry.

Some entries whose results are on file:
molecule=Nc1nc(C#CCC2CCN(C(=O)Oc3ccccc3Cl)CC2)nc2c1ncn2[C@@H]1O[C@H](CO)[C@@H](O)[C@H]1O system_name="Purified human neutrophils" measurement_name=EC50 test_result="< 10 nM"
molecule=COc1ccccc1OC(=O)N1CCC(CC#Cc2nc(N)c3ncn([C@@H]4O[C@H](CO)[C@@H](O)[C@H]4O)c3n2)CC1 system_name="Purified human neutrophils" measurement_name=EC50 test_result="< 10 nM"
molecule="CCNC(=O)[C@H]1O[C@@H](n2cnc3c(N)nc(C#CCC4CCN(C(=O)Oc5ccc([N+](=O)[O-])cc5)CC4)nc32)[C@@H](O)C1O (stereo partly drawn)" system_name="Purified human neutrophils" measurement_name=EC50 test_result="< 1 nM"
molecule="COC(=O)c1ccc(OC(=O)N2CCC(CC#Cc3nc(N)c4ncn([C@@H]5O[C@H](C(=O)NC6CC6)C(O)[C@@H]5O)c4n3)CC2)cc1 (stereo partly drawn)" system_name="Purified human neutrophils" measurement_name=EC50 test_result="< 10 nM"
molecule="Nc1nc(C#CCC2CCN(C(=O)Oc3ccc(Cl)c(Cl)c3)CC2)nc2c1ncn2[C@@H]1O[C@H](C(=O)NC2CC2)C(O)[C@@H]1O (stereo partly drawn)" system_name="Purified human neutrophils" measurement_name=EC50 test_result="< 1 nM"

Turning to the following molecule.
Qu. Entry Nc1nc(C#CCC2CCN(C(=O)OCc3ccc([N+](=O)[O-])cc3)CC2)nc2c1ncn2[C@@H]1O[C@H](C(=O)NC2CC2)C(O)[C@@H]1O (stereo partly drawn) , system Purified human neutrophils: what EC50 was measured?
Ans. < 1 nM

---

Quick list: EC50 per entry.
Tested on: Purified human neutrophils
Test: Luminol enhanced chemiluminescence (neutrophil oxidative activity), fMLP stimulated
Type: cell-based
Details: Homo sapiens, Neutrophil; read-out: Functional

compound=Nc1nc(C#CCC2CCN(C(=O)Oc3ccc(F)cc3)CC2)nc2c1ncn2[C@@H]1O[C@H](CO)[C@@H](O)[C@H]1O test_result="< 10 nM"

Qu. Item under review: Nc1nc(C#CCC2CCN(C(=O)OCc3ccccc3)CC2)nc2c1ncn2[C@@H]1O[C@H](C(=O)NC2CC2)C(O)[C@@H]1O (stereo partly drawn) [Compound 2, reference compound] . Reported EC50?
Ans. < 1 nM

Qu. Item under review: COC(=O)c1ccc(OC(=O)N2CCC(CC#Cc3nc(N)c4ncn([C@@H]5O[C@H](CO)[C@@H](O)[C@H]5O)c4n3)CC2)cc1 . Reported EC50?
Ans. < 10 nM

Qu. Item under review: CCNC(=O)[C@H]1O[C@@H](n2cnc3c(N)nc(C#CCC4CCN(C(=O)Oc5ccc(F)cc5)CC4)nc32)[C@@H](O)C1O (stereo partly drawn) . Reported EC50?
Ans. < 1 nM

Qu. Item under review: COc1ccc(OC(=O)N2CCC(CC#Cc3nc(N)c4ncn([C@@H]5O[C@H](C(=O)NC6CC6)C(O)[C@@H]5O)c4n3)CC2)cc1 (stereo partly drawn) . Reported EC50?
Ans. < 1 nM

Qu. Item under review: Nc1nc(C#CCC2CCN(C(=O)Oc3ccc(Br)cc3Br)CC2)nc2c1ncn2[C@@H]1O[C@H](C(=O)NC2CC2)C(O)[C@@H]1O (stereo partly drawn) . Reported EC50?
Ans. < 10 nM

Qu. Item under review: Nc1nc(C#CCC2CCN(C(=O)Nc3cccc(Cl)c3)CC2)nc2c1ncn2[C@@H]1O[C@H](C(=O)NC2CC2)C(O)[C@@H]1O (stereo partly drawn) . Reported EC50?
Ans. < 100 nM

Qu. Item under review: Nc1nc(C#CCC2CCN(C(=O)Oc3ccc(F)c(F)c3)CC2)nc2c1ncn2[C@@H]1O[C@H](C(=O)NC2CC2)C(O)[C@@H]1O (stereo partly drawn) . Reported EC50?
Ans. < 1 nM

Qu. Item under review: CCNC(=O)[C@H]1O[C@@H](n2cnc3c(N)nc(C#CCC4CCN(C(=O)OCc5ccc([N+](=O)[O-])cc5)CC4)nc32)[C@@H](O)C1O (stereo partly drawn) . Reported EC50?
Ans. < 10 nM

---

Target: recombinant human A2A receptors (Homo sapiens)
Construct: expressed in transfected cells; host or cells: Sf9 insect cells infected with virus; membranes
Sequence (P29274 whole entry): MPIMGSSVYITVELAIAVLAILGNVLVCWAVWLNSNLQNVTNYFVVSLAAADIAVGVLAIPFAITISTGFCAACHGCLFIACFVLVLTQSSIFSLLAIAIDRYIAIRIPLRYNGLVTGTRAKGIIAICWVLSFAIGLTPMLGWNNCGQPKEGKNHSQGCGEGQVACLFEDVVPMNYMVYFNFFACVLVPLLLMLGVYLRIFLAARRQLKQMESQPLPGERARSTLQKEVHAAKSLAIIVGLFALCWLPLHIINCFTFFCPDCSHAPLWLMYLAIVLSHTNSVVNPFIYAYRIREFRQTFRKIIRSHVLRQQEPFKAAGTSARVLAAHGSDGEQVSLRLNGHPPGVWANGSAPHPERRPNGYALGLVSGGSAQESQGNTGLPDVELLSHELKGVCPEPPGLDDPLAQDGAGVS
Test: Radioligand competition binding with 125I-APE or 125I-ZM241385, Sf9 cell membranes
Conditions: 125I-APE or 125I-ZM241385, Sf9 membranes; class symbols
pKi: −log10 of the molar value.
MEASUREMENT_NAME: pKi

compound="Nc1nc(C#CCC2CCN(C(=O)Nc3ccc(Cl)cc3)CC2)nc2c1ncn2[C@@H]1O[C@H](CO)C(O)[C@@H]1O (stereo partly drawn)" test_result="> 8.00"
compound=Nc1nc(C#CCC2CCN(C(=O)Oc3ccc(F)c(F)c3)CC2)nc2c1ncn2[C@@H]1O[C@H](CO)[C@@H](O)[C@H]1O test_result="> 9.00"
compound="Cc1ccc(OC(=O)N2CCC(CC#Cc3nc(N)c4ncn([C@@H]5O[C@H](C(=O)NC6CC6)C(O)[C@@H]5O)c4n3)CC2)cc1 (stereo partly drawn)" test_result="> 9.00"
compound="Nc1nc(C#CCC2CCN(C(=O)Oc3ccc(Br)cc3Br)CC2)nc2c1ncn2[C@@H]1O[C@H](C(=O)NC2CC2)C(O)[C@@H]1O (stereo partly drawn)" test_result="> 9.00"
compound="CCNC(=O)[C@H]1O[C@@H](n2cnc3c(N)nc(C#CCC4CCN(C(=O)OCc5ccc([N+](=O)[O-])cc5)CC4)nc32)[C@@H](O)C1O (stereo partly drawn)" test_result="> 9.00"

Qu. Entry COc1ccccc1OC(=O)N1CCC(CC#Cc2nc(N)c3ncn([C@@H]4O[C@H](CO)[C@@H](O)[C@H]4O)c3n2)CC1 , system recombinant human A2A receptors (Homo sapiens): what pKi was measured?
Ans. > 9.00

Qu. Entry CCNC(=O)[C@H]1O[C@@H](n2cnc3c(N)nc(C#CCC4CCN(C(=O)Oc5ccc(Cl)c(Cl)c5)CC4)nc32)[C@@H](O)C1O (stereo partly drawn) , system recombinant human A2A receptors (Homo sapiens): what pKi was measured?
Ans. > 9.00

Qu. Entry CCNC(=O)[C@H]1O[C@@H](n2cnc3c(N)nc(C#CCC4CCN(C(=O)Oc5ccc(F)cc5)CC4)nc32)[C@@H](O)C1O (stereo partly drawn) , system recombinant human A2A receptors (Homo sapiens): what pKi was measured?
Ans. > 9.00

Qu. Entry Nc1nc(C#CCC2CCN(C(=O)Oc3ccc(C(=O)O)cc3)CC2)nc2c1ncn2[C@@H]1O[C@H](C(=O)NC2CC2)C(O)[C@@H]1O (stereo partly drawn) , system recombinant human A2A receptors (Homo sapiens): what pKi was measured?
Ans. > 8.00

---

Molecular target: human A3 AR (Homo sapiens)
Construct: expressed in transfected cells; membranes
Sequence (P0DMS8 whole entry): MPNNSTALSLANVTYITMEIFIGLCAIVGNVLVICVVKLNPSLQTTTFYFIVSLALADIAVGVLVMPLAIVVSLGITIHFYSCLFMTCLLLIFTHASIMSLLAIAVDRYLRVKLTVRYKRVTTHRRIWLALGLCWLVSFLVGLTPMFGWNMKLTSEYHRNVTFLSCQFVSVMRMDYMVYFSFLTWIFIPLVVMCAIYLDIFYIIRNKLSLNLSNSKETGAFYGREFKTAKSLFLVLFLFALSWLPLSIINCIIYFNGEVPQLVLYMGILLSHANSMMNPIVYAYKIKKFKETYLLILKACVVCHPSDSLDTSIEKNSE
Assay: Radioligand competition binding with 125I-ABA, membranes of HEK 293 cells stably expressing the receptor
Conditions: Ki derived from IC50, class symbols
MEASUREMENT_NAME: Ki

Some entries whose results are on file:
molecule="Nc1nc(C#CCC2CCN(C(=O)Oc3ccc(F)c(F)c3)CC2)nc2c1ncn2[C@@H]1O[C@H](C(=O)NC2CC2)C(O)[C@@H]1O (stereo partly drawn)" system_name="human A3 AR (Homo sapiens)" measurement_name=Ki test_result="< 100 nM"
molecule="COC(=O)c1ccc(OC(=O)N2CCC(CC#Cc3nc(N)c4ncn([C@@H]5O[C@H](C(=O)NC6CC6)C(O)[C@@H]5O)c4n3)CC2)cc1 (stereo partly drawn)" system_name="human A3 AR (Homo sapiens)" measurement_name=Ki test_result="< 100 nM"

Qu. Item under review: Nc1nc(C#CCC2CCN(C(=O)Oc3cccc(C(F)(F)F)c3)CC2)nc2c1ncn2[C@@H]1O[C@H](CO)C(O)[C@@H]1O (stereo partly drawn) . Reported Ki?
Ans. < 10 nM

---

Tested on: Purified human neutrophils
Experiment: Luminol enhanced chemiluminescence (neutrophil oxidative activity), fMLP stimulated
Assay type: cell-based
Conditions: Homo sapiens, Neutrophil; read-out: Functional
Quick list: EC50 per entry.

compound="Cc1ccc(OC(=O)N2CCC(CC#Cc3nc(N)c4ncn([C@@H]5O[C@H](C(=O)NC6CC6)C(O)[C@@H]5O)c4n3)CC2)cc1 (stereo partly drawn)" test_result="< 1 nM"
compound=Nc1nc(C#CCC2CCN(C(=O)OCc3ccc([N+](=O)[O-])cc3)CC2)nc2c1ncn2[C@@H]1O[C@H](CO)[C@@H](O)[C@H]1O test_result="< 10 nM"
compound="CCNC(=O)[C@H]1O[C@@H](n2cnc3c(N)nc(C#CCC4CCN(C(=O)Oc5ccc(Cl)cc5)CC4)nc32)[C@@H](O)C1O (stereo partly drawn)" test_result="< 1 nM"

Qu. Item under review: CCNC(=O)[C@H]1O[C@@H](n2cnc3c(N)nc(C#CCC4CCN(C(=O)Oc5ccc(C)cc5)CC4)nc32)[C@@H](O)C1O (stereo partly drawn) . Reported EC50?
Ans. < 1 nM

Qu. Item under review: CCNC(=O)[C@H]1O[C@@H](n2cnc3c(N)nc(C#CCC4CCN(C(=O)Oc5ccc(N)cc5)CC4)nc32)[C@@H](O)C1O (stereo partly drawn) . Reported EC50?
Ans. < 1 nM

Qu. Item under review: CCNC(=O)[C@H]1O[C@@H](n2cnc3c(N)nc(C#CCC4CCN(C(=O)OCc5ccccc5)CC4)nc32)[C@@H](O)C1O (stereo partly drawn) [Compound 32, reference compound] . Reported EC50?
Ans. < 10 nM

Qu. Item under review: Nc1nc(C#CCC2CCN(C(=O)Nc3ccc(F)cc3)CC2)nc2c1ncn2[C@@H]1O[C@H](CO)C(O)[C@@H]1O (stereo partly drawn) . Reported EC50?
Ans. > 100 nM

Qu. Item under review: CCNC(=O)[C@H]1O[C@@H](n2cnc3c(N)nc(C#CCC4CCN(C(=O)Oc5ccc(Cl)c(Cl)c5)CC4)nc32)[C@@H](O)C1O (stereo partly drawn) . Reported EC50?
Ans. < 1 nM

Qu. Item under review: Nc1nc(C#CCC2CCN(C(=O)Oc3cccc(C(F)(F)F)c3)CC2)nc2c1ncn2[C@@H]1O[C@H](CO)C(O)[C@@H]1O (stereo partly drawn) . Reported EC50?
Ans. < 10 nM

Qu. Item under review: CCNC(=O)[C@H]1O[C@@H](n2cnc3c(N)nc(C#CCC4CCN(C(=O)Oc5ccc(F)c(F)c5)CC4)nc32)[C@@H](O)C1O (stereo partly drawn) . Reported EC50?
Ans. < 1 nM

Qu. Item under review: Nc1nc(C#CCC2CCN(C(=O)Oc3cccc(C(F)(F)F)c3)CC2)nc2c1ncn2[C@@H]1O[C@H](C(=O)NC2CC2)C(O)[C@@H]1O (stereo partly drawn) . Reported EC50?
Ans. < 10 nM

Qu. Item under review: CCNC(=O)[C@H]1O[C@@H](n2cnc3c(N)nc(C#CCC4CCN(C(=O)Oc5ccc(OC)cc5)CC4)nc32)[C@@H](O)C1O (stereo partly drawn) . Reported EC50?
Ans. < 1 nM
